# [Intermediate A] or [Amprenavir] per record follows
- EXPERIMENTAL_TARGET: bovine intestinal alkaline phosphatase (Bos taurus (Bovine), UniProt P19111)
- Sequence (P19111 20-506): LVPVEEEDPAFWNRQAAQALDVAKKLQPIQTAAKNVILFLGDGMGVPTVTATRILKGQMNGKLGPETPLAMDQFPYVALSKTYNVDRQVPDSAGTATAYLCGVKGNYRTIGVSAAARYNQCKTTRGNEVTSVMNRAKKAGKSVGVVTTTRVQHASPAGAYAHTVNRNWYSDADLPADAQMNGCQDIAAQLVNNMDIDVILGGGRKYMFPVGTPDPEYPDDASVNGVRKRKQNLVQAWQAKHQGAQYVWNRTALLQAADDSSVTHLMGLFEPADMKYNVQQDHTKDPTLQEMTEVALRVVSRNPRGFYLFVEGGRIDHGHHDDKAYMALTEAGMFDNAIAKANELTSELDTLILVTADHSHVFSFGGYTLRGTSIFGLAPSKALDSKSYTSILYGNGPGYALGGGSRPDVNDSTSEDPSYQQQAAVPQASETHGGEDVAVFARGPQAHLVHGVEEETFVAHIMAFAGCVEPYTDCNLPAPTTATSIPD
- ASSAY: BiALP: conversion by bovine intestinal alkaline phosphatase
- Assay type: in vitro ADME
- PROTOCOL_CONDITIONS: parent formed; 2 μM substrate, 100 ng/mL iALP, Tris pH 7.8, 37° C., 60 minutes
RECORDED_ENDPOINT: [Intermediate A] or [Amprenavir]

COC(=O)N[C@H](C(=O)N[C@@H](Cc1ccc(C#Cc2cnc(N3CC4CCC(C3)N4C3COC3)nc2)cc1)[C@H](CN(Cc1c(F)cc(-c2ccn(C(F)F)n2)cc1F)NC(=O)[C@@H](NC(=O)OC)C(C)(C)C(F)(F)F)OC(=O)OCOC(=O)CC(C)(C)c1c(CC(=O)N2CCN(S(=O)(=O)N(C)C)CC2)cc(C)cc1OP(=O)(O)O)C(C)(C)C(F)(F)F 112.9 nM
COC(=O)N[C@H](C(=O)N[C@@H](Cc1ccc(C#Cc2cnc(N3CC4CCC(C3)N4C3COC3)nc2)cc1)[C@H](CN(Cc1c(F)cc(-c2ccn(C(F)F)n2)cc1F)NC(=O)[C@@H](NC(=O)OC)C(C)(C)C(F)(F)F)OC(=O)CC(C)(C)c1c(CC(=O)NCc2ccc(S(N)(=O)=O)cc2)cc(C)cc1OP(=O)(O)O)C(C)(C)C(F)(F)F 0 nM
COC(=O)N[C@H](C(=O)N[C@@H](Cc1ccc(C#Cc2cnc(N3CC4CCC(C3)N4C3COC3)nc2)cc1)[C@H](CN(Cc1c(F)cc(-c2ccn(C(F)F)n2)cc1F)NC(=O)[C@@H](NC(=O)OC)C(C)(C)C(F)(F)F)OC(=O)CC(C)(C)c1c(CC(=O)NCC(=O)O)cccc1OP(=O)(O)O)C(C)(C)C(F)(F)F 164.7 nM

###

- ASSAY: Solubility in FaSSIF
- PROTOCOL_CONDITIONS: 23 °C, pH 6.5, fassif, thermodynamic from solid
I would appreciate it if you labelled entries YES when solubility at 2 h is 4000 µg/mL or higher, otherwise NO.

COMPOUND	CATEGORY
COC(=O)N[C@H](C(=O)N[C@@H](Cc1ccc(C#Cc2cnc(N3CC4CCC(C3)N4C3COC3)nc2)cc1)[C@H](CN(Cc1c(F)cc(-c2ccn(C(F)F)n2)cc1F)NC(=O)[C@@H](NC(=O)OC)C(C)(C)C(F)(F)F)OC(=O)CC(C)(C)c1c(CC(=O)N[C@H](CCC(=O)O)C(=O)O)cc(C)cc1OP(=O)(O)O)C(C)(C)C(F)(F)F	NO
COC(=O)N[C@H](C(=O)N[C@@H](Cc1ccc(C#Cc2cnc(N3CC4CCC(C3)N4C3COC3)nc2)cc1)[C@H](CN(Cc1c(F)cc(-c2ccn(C(F)F)n2)cc1F)NC(=O)[C@@H](NC(=O)OC)C(C)(C)C(F)(F)F)OC(=O)CC(C)(C)c1c(CC(=O)N[C@H]2C[C@@H](C(=O)O)C2)cc(C)cc1OP(=O)(O)O)C(C)(C)C(F)(F)F	NO
COC(=O)N[C@H](C(=O)N[C@@H](Cc1ccc(C#Cc2cnc(N3CC4CCC(C3)N4C3COC3)nc2)cc1)[C@H](CN(Cc1c(F)cc(-c2ccn(C(F)F)n2)cc1F)NC(=O)[C@@H](NC(=O)OC)C(C)(C)C(F)(F)F)OC(=O)CC(C)(C)c1c(CC(=O)N2CC(C(=O)O)CC(C(=O)O)C2)cc(C)cc1OP(=O)(O)O)C(C)(C)C(F)(F)F (stereo partly drawn)	NO
COC(=O)N[C@H](C(=O)N[C@@H](Cc1ccc(C#Cc2cnc(N3CC4CCC(C3)N4C3COC3)nc2)cc1)[C@H](CN(Cc1c(F)cc(-c2ccn(C(F)F)n2)cc1F)NC(=O)[C@@H](NC(=O)OC)C(C)(C)C(F)(F)F)OC(=O)CC(C)(C)c1c(CC(=O)Nc2cc(C(=O)O)cc(S(C)(=O)=O)c2)cc(C)cc1OP(=O)(O)O)C(C)(C)C(F)(F)F	NO
COC(=O)N[C@H](C(=O)N[C@@H](Cc1ccc(C#Cc2cnc(N3CC4CCC(C3)N4C3COC3)nc2)cc1)[C@H](CN(Cc1c(F)cc(-c2ccn(C(F)F)n2)cc1F)NC(=O)[C@@H](NC(=O)OC)C(C)(C)C(F)(F)F)OC(=O)CC(C)(C)c1c(CC(=O)NCCCS(=O)(=O)O)cc(C)cc1OP(=O)(O)O)C(C)(C)C(F)(F)F	NO
COC(=O)N[C@H](C(=O)N[C@@H](Cc1ccc(C#Cc2cnc(N3CC4CCC(C3)N4C3COC3)nc2)cc1)[C@H](CN(Cc1c(F)cc(-c2ccn(C(F)F)n2)cc1F)NC(=O)[C@@H](NC(=O)OC)C(C)(C)C(F)(F)F)OC(=O)CC(C)(C)c1c(CC(=O)N[C@@H](C)C(=O)O)cc(C)cc1OP(=O)(O)O)C(C)(C)C(F)(F)F	YES

###

# half-life at 2 μM per record follows
- ASSAY: Intestinal S9 Assay (human GI S9)
- Format: in vitro ADME
- PROTOCOL_CONDITIONS: human, 1.0 mg/mL S9 protein, TRIS pH 7.4, read-out: Human GI S9 T½

COMPOUND	half-life at 2 μM [h]
COC(=O)N[C@H](C(=O)N[C@@H](Cc1ccc(C#Cc2cnc(N3CC4CCC(C3)N4C3COC3)nc2)cc1)[C@H](CN(Cc1c(F)cc(-c2ccn(C(F)F)n2)cc1F)NC(=O)[C@@H](NC(=O)OC)C(C)(C)C(F)(F)F)OC(=O)CC(C)(C)c1c(CC(=O)NCc2cccc(C(=O)O)c2)cc(C)cc1OP(=O)(O)O)C(C)(C)C(F)(F)F [Example 53]	3.4
COC(=O)N[C@H](C(=O)N[C@@H](Cc1ccc(C#Cc2cnc(N3CC4CCC(C3)N4C3COC3)nc2)cc1)[C@H](CN(Cc1c(F)cc(-c2ccn(C(F)F)n2)cc1F)NC(=O)[C@@H](NC(=O)OC)C(C)(C)C(F)(F)F)OC(=O)CC(C)(C)c1c(CC(=O)Nc2cccc(S(=O)(=O)O)c2)cc(C)cc1OP(=O)(O)O)C(C)(C)C(F)(F)F [Example 105]	9.3

###

- ASSAY: Intestinal S9 Assay (dog GI S9)
- Type: in vitro ADME
- PROTOCOL_CONDITIONS: dog, 1.0 mg/mL S9 protein, TRIS pH 7.4, read-out: Dog GI S9 T½
# half-life at 2 μM per record follows
RECORDED_ENDPOINT: half-life at 2 μM (h)

COC(=O)N[C@H](C(=O)N[C@@H](Cc1ccc(C#Cc2cnc(N3CC4CCC(C3)N4C3COC3)nc2)cc1)[C@H](CN(Cc1c(F)cc(-c2ccn(C(F)F)n2)cc1F)NC(=O)[C@@H](NC(=O)OC)C(C)(C)C(F)(F)F)OC(=O)CC(C)(C)c1c(CC(=O)N2C[C@@H](C(=O)O)C[C@H]2C(=O)O)cc(C)cc1OP(=O)(O)O)C(C)(C)C(F)(F)F 4.24
COC(=O)N[C@H](C(=O)N[C@@H](Cc1ccc(C#Cc2ccc(N3CC4CCC(C3)N4C3COC3)nc2)cc1)[C@H](CN(Cc1c(F)cc(-c2ccn(C(F)F)n2)cc1F)NC(=O)[C@@H](NC(=O)OC)C(C)(C)C(F)(F)F)OC(=O)CC(C)(C)c1c(CC(=O)Nc2cccc(C(=O)OO)c2)cc(C)cc1CP(=O)(O)O)C(C)(C)C(F)(F)F 3.95
COC(=O)N[C@H](C(=O)N[C@@H](Cc1ccc(C#Cc2cnc(N3CC4CCC(C3)N4C3COC3)nc2)cc1)[C@H](CN(Cc1c(F)cc(-c2ccn(C(F)F)n2)cc1F)NC(=O)[C@@H](NC(=O)OC)C(C)(C)C(F)(F)F)OC(=O)CC(C)(C)c1c(CC(=O)N2[C@H](C(=O)O)C[C@@H]3CCCC[C@@H]32)cc(C)cc1OP(=O)(O)O)C(C)(C)C(F)(F)F 12

###

- ASSAY: Solubility in FaSSIF
- PROTOCOL_CONDITIONS: 23 °C, pH 6.5, fassif, thermodynamic from solid
RECORDED_ENDPOINT: solubility at 2 h (µg/mL)

COMPOUND	VALUE_UNITS	TEST_VALUE
COC(=O)N[C@H](C(=O)N[C@@H](Cc1ccc(C#Cc2cnc(N3CC4CCC(C3)N4C3COC3)nc2)cc1)[C@H](CN(Cc1c(F)cc(-c2ccn(C(F)F)n2)cc1F)NC(=O)[C@@H](NC(=O)OC)C(C)(C)C(F)(F)F)OC(=O)CC(C)(C)c1c(CC(=O)N[C@@H](Cc2c[nH]c3ccccc23)C(=O)O)cc(C)cc1OP(=O)(O)O)C(C)(C)C(F)(F)F [Example 48]	µg/mL	910
COC(=O)N[C@H](C(=O)N[C@@H](Cc1ccc(C#Cc2cnc(N3CC4CCC(C3)N4C3COC3)nc2)cc1)[C@H](CN(Cc1c(F)cc(-c2ccn(C(F)F)n2)cc1F)NC(=O)[C@@H](NC(=O)OC)C(C)(C)C(F)(F)F)OC(=O)CC(C)(C)c1c(CC(=O)N(C)CCC(=O)O)cc(C)cc1OP(=O)(O)O)C(C)(C)C(F)(F)F [Example 94]	µg/mL	1580

Value source: patent US20250051375A1
